- Test system: MS2 coat protein
- METHOD SUMMARY: apparent KD of MS2 coat protein; higher = weaker reporter binding
- EXPERIMENTAL CONDITIONS: Eterna round: R107; input ligand: none
ATTRIBUTE MEASURED: apparent KD of MS2 coat protein (nM)
Answers are plain numbers, in nM.

# annotated cases, reported apparent KD of MS2 coat protein shown
UUGGGUAUGCGAAGGAGCGGGAAAUAUAUAUAUAUAAUCCUAACAUGAGGAUCACCCAUGUCCCAGGUAGGUCGCGCAUGUUUGG [12.K] :: 207
GUUGGAUUCUCGGCCGCCACUGAGAGAGUCAUGUGAACAUGAGGAUCACCCAUGUAAUAUAUAUACAGGACCGGGAGGGUUGUAA [4.K] :: 20.2
AUAAGGUAUCUGCUUCAUGGGUGAGCAGAUACCAGCUAGGAAACUAGCCCUUGGCAGCUGCAACAUGAGGAUCACCCAUGUAAUA [(T)'-(M)'-(T1)-(T2)-(M1)-(M2)_Design2] :: 1060
UCAGUGCAGGGAAGGAGCGGGUACAUGAGGAUCACCCAUGUGCAAGUGGUGAGCGUCCGUGCCCAGGUAGGUCGCCCAGCCUGGU [Atarteedon] :: 121
ACGCUGAUUGAUUACAAUCAGCGAAAAGAUACCAGUGGGUAAUCCCACCCUUGGCAGCUUAAACAAGAGGAUCACCCUUGUGGUA [TheoAS 16 #MS2Right #BothOrNeither #AlternativeMS2] :: 201
GGUUACUCUACGGCCGCCACUGGGCAUGUAAAUAACAUGAGGAUCACCCAUGUGGAUUAAUAUUACAGGACCGGGUAGUGUAACC [Tryptophan B 23] :: 279
AACAUACAAUUUUAGGUGGAUAUAAGGCGGCGAGGACCGGUACGGCCGCCACUCGCGUACAUGAGGAUCACCCAUGUCUGAAACU [Same State - Tryptophan A (Freestyle 5)] :: 19.8
GGCUAGUGCAUCGAUACCAGCUACAUGAGGAUCACCCAUGUAGGAAGGGUGGCACUCGAUAGCCCUUGGCAGCGAACACCUCCGG [Cebebion] :: 18.9
GGGUACAUCGCGGCCGCCACUGAUGUAAAUACAUGAGGAUCACCCAUGUCGAUGGAGACAUCGGCCAGGACCGGGUGAUGUACCG :: 14
GGACUAACCAGAAGGAGCGACACGCAGAAACUGCAAAUUCCUCCGCACGAGGAUCACCCGUGUCAGGUAGGUCGCUGGUUAGUCG [ArgBX 28] :: 19.4

Hi! Can you tell me apparent KD of MS2 coat protein for each of these sequences?
1. CUAUUUAUAGCGGCCGCCACUUACUCAUGAGGUAACAACAUGAGGAUCACCCAUGUUUGAGGAUCAAGGACCGGGCUAUAGAUAG [AstrosSSTryB#11]
2. UUUGGCGGCGAUCUGGGUUUCCCAGAUCGGCGAGGACCGGUACGGCCGCCACUCGUGUUUCUUUGACAUGAGGAUCACCCAUGUA [whbob_SS_trypto A_f4]
3. ACAUGAGGAUCACCCAUGUAACCUAGGGAAGGAGCGGUGUAAGAGCCAGGUAGGUCGCCCACAUGUGGAUCACCCAUGGUGAGGG [#24 Same State - Arginine A]
4. ACAUAUUGGUGGUACCAACGAAGGCGGAAACGAGGACCGGUACGGCCGCCACUCGGCGACAUGAGGAUCACCCAUGUGGUUAAAA [Exclusion - Tryptophan A (Freestyle 2)]
5. AAUAUUUGCCACAUGAGGAUCACCCAUGUGCGAGGACCGGUACGGCCGCCACUCGGUCGGUGGUUAAUGAAGAUAAACAAUAAUG [XTryp A #11]
6. UUAAUUAUAUAUUAUUUAAUAUUUACAGAAGGAGCGUGAUAAAACACAGGUAGGUCGCUGAAGGGAACAUGAGGAUCACCCAUGU [AstrosSSArgA#20]

stdout:
[27.5, 62.7, 29, 149, 12, 28.9]
